Target: T1, monkey CTLA4 (SPR analyte, construct not stated) (monkey, UniProt G7PL88 36-161)
T1 sequence: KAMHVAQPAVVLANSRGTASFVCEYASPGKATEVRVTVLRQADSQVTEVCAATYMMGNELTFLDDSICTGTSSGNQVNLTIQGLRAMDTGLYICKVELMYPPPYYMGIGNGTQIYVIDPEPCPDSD
Test: SPR (Biacore T200), IgG captured by anti-human Fc
pKd: −log10 of the molar value.

{"columns": ["binder", "pKd"],
 "data": [
  ["TY21692 (antibody, V domains shown, human IgG1 (hIgG1) from Fab hit B16083) VH: EVQLVESGGGLVQPGGSLRLSCAASGYSITSGHYWSWIRQAPGKGLEWIGDISHSGSTYYSQSLKSRVTISRDNSKNTLYLQLNSLRAEDTAVYYCARGSRTGYFDYWGQGTLVTVSS VL: DIQLTQSPSSLSASVGDRVTITCRASQSISSYLNWYQQKPGKAPKLLIYDASNLETGVPSRFSGSGSGTDFTLTISSLQPEDFATYYCQHHYGTPLTFGQGTKVEIKR", 8.56],
  ["TY21691 (antibody, V domains shown, human IgG1 (hIgG1) from Fab hit B15736) VH: EVQLVESGGGLVQPGGSLRLSCAASGFTFSDYAIHWVRQAPGKGLEWIGIISPSGGSTKYAQKFQGRVTISRDNSKNTLYLQLNSLRAEDTAVYYCARLGYGYFDVWGQGTLVTVSS VL: DIQLTQSPSSLSASVGDRVTITCRASQSVDFYGISFLHWYQQKPGKAPKLLIYDASSLESGVPSRFSGSGSGTDFTLTISSLQPEDFATYYCVQALQLPLTFGQGTKVEIK", 8.61],
  ["TY21687 (antibody, V domains shown, human IgG1 (hIgG1) from Fab hit B15700) VH: EVQLVESGGGLVQPGGSLRLSCAASGFTFSGYAIHWVRQAPGKGLEWIGIISPSGGGTKYAQKFQGRVTISRDNSKNTLYLQLNSLRAEDTAVYYCARHPFAYWGQGTLVTVSS VL: DIQLTQSPSSLSASVGDRVTITCRASQSVDFYGISFLDWYQQKPGKAPKLLIYDASNRATGIPSRFSGSGSGTDFTLTISSLQPEDFATYYCQQYVSSPPEYTFGQGTKVEIK", 8.82],
  ["TY21585 (antibody, V domains shown, human IgG1 (hIgG1) from Fab hit B15709) VH: EVQLVESGGGLVQPGGSLRLSCAASGFTFSDYAIHWVRQAPGKGLEWIGIISPSSGSTNYAQKFQGRVTISRDNSKNTLYLQLNSLRAEDTAVYYCARDIHSGSSGYYYGFDVWGQGTLVTVSS VL: DIQLTQSPSSLSASVGDRVTITCRASESVDFFGISFLAWYQQKPGKAPKLLIYDASNRATGIPSRFSGSGSGTDFTLTISSLQPEDFATYYCQHYTSSPPVYTFGQGTKVEIK", 8.08],
  ["TY21591 (antibody, V domains shown, human IgG1 (hIgG1) from Fab hit B15756) VH: EVQLVESGGGLVQPGGSLRLSCAASGFSLSTGGVAVSWIRQAPGKGLEWIGEIYHSGSTYYSPSLKSRVTISRDNSKNTLYLQLNSLRAEDTAVYYCARRIATATYFDYWGQGTLVTVSS VL: DIQLTQSPSSLSASVGDRVTITCRASQTVFSRYLAWYQQKPGKAPKLLIYDASNRATGIPSRFSGSGSGTDFTLTISSLQPEDFATYYCQQSYYWPPWTFGQGTKVEIK", 8.49]
]}

Sourced from patent US20190241662A1
